Target: T1, GFP-9S library array, motif 4 ND N98P;D124I (synthetic construct, N98P;D124I)
T1 chain: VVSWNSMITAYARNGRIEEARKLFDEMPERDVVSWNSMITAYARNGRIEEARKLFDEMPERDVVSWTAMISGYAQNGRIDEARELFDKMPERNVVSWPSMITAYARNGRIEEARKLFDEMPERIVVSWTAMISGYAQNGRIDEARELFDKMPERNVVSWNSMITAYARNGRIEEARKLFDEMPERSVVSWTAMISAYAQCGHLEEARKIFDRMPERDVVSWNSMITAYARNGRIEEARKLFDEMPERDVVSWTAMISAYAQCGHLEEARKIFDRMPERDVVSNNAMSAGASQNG
Assay: high-throughput RNA pulldown from lysate on Ni-NTA beads; HRP: 50 mM Tris pH 8, 150 mM NaCl, 1 mM beta-mercaptoethanol, 50 ug/ml BSA, 3 ug/ml yeast RNA, 0.5% heparin; ITC and FP: Tris pH 8, 200 mM KCl, 5% glycerol; MST: 50 mM Tris pH 8, 200 mM NaCl, 1 mM DTT, BSA, heparin, 0.05% Tween 20
Settings: tags: N-terminal His-eGFP; label: 5' Cy5
pKd: −log10 of the molar value.
# pKd annotations
Observable: pKd

AUUACACGUGA (ssRNA) [Cy5-rpoA]: 6.96
AUUAGACGUGA (ssRNA) [Cy5-rpoA-G]: 6.90

Source listed as paper PMC8809517.
